Property: LPS % cell toxicity; scope: individual molecules
# Tested on: primary rat microglia
# DETAILS: rat
Where a name gives a salt, the structure may show the parent alone.
REPORTED METRIC: LPS % cell toxicity (%)

>>> observed_measurement("CC/C=C\\C/C=C\\C/C=C\\C/C=C\\C/C=C\\C/C=C\\CCC(=O)O [Doconexent]")
0
>>> observed_measurement("CC(=O)Oc1ccc(C(c2ccc(OC(C)=O)cc2)c2ccccn2)cc1 [Bisacodyl]")
0
>>> observed_measurement("CC(C)(O)c1ccccc1CC[C@@H](SCC1(CC(=O)O)CC1)c1cccc(/C=C/c2ccc3ccc(Cl)cc3n2)c1 [Montelukast Sodium]")
0
>>> observed_measurement("CC(C)NCC(O)c1ccc(NS(C)(=O)=O)cc1 (stereo not drawn) [Sotalol]")
0
>>> observed_measurement("CC[C@]1(O)C[C@H]2CN(CCc3c([nH]c4ccccc34)[C@@](C(=O)OC)(c3cc4c(cc3OC)N(C=O)[C@H]3[C@@](O)(C(=O)OC)[C@H](OC(C)=O)[C@]5(CC)C=CCN6CC[C@]43[C@@H]65)C2)C1 [Vincristine Sulfate]")
7
>>> observed_measurement("Oc1cccc2cccnc12 [Oxyquinoline]")
57
>>> observed_measurement("CN(C)CCOc1ccc(/C(=C(/CCCl)c2ccccc2)c2ccccc2)cc1 [Toremifene]")
0
>>> observed_measurement("O=C1NS(=O)(=O)c2ccccc21 [Saccharin]")
0
>>> observed_measurement("NCC(=O)CCC(=O)O [Aminolevulinic acid]")
0
